This listing pairs compounds with measured AUC of dose-response viability curve.
Tested on: SN12C
protocolNotes: AUC of dose-response viability curve, drug + dasatinib, normalised to DMSO (arbitrary (AUC of normalised viability)); higher = less growth inhibition
assaySetup: treatment: drug + dasatinib (fixed dose, not stated); 5 days
reportedEndpoint: AUC of dose-response viability curve

• Cc1ccc(F)c(NC(=O)Nc2ccc(-c3cccc4[nH]nc(N)c34)cc2)c1 [Linifanib (ABT-869)] + Cc1nc(Nc2ncc(C(=O)Nc3c(C)cccc3Cl)s2)cc(N2CCN(CCO)CC2)n1 = 2.25
• CO[C@H]1C[C@H]2CC[C@@H](C)[C@@](O)(O2)C(=O)C(=O)N2CCCC[C@H]2C(=O)O[C@H]([C@H](C)C[C@@H]2CC[C@H](OP(C)(C)=O)[C@H](OC)C2)CC(=O)[C@H](C)/C=C(\C)[C@@H](O)[C@@H](OC)C(=O)[C@H](C)C[C@H](C)/C=C/C=C/C=C/1C (stereo in doubt) [Deforolimus (Ridaforolimus)] + Cc1nc(Nc2ncc(C(=O)Nc3c(C)cccc3Cl)s2)cc(N2CCN(CCO)CC2)n1 = 1.67
• Cc1cnc(NC(=O)Nc2cc(Br)c(C)cc2OC[C@@H]2CNCCO2)cn1 + Cc1nc(Nc2ncc(C(=O)Nc3c(C)cccc3Cl)s2)cc(N2CCN(CCO)CC2)n1 = 2.27
• CNC(=O)c1cc(Oc2ccc(NC(=O)Nc3cc(C(C)(C)C)nn3-c3ccc4ncccc4c3)c(F)c2)ccn1 [DCC-2036 (Rebastinib)] + Cc1nc(Nc2ncc(C(=O)Nc3c(C)cccc3Cl)s2)cc(N2CCN(CCO)CC2)n1 = 1.87
• COc1ccc(-c2ccc3ncc4c(c3c2)n(-c2ccc(N3CCNCC3)c(C(F)(F)F)c2)c(=O)n4C)cn1.O=C(O)/C=C\C(=O)O [NVP-BGT226] + Cc1nc(Nc2ncc(C(=O)Nc3c(C)cccc3Cl)s2)cc(N2CCN(CCO)CC2)n1 = 0.601
• NC1(Cc2ccc(Cl)cc2)CCN(c2ncnc3[nH]ccc23)CC1 + Cc1nc(Nc2ncc(C(=O)Nc3c(C)cccc3Cl)s2)cc(N2CCN(CCO)CC2)n1 = 2.36
• COc1cc2ncnc(Nc3ccc(F)c(Cl)c3)c2cc1OCCCN1CCOCC1 [Gefitinib (Iressa)] + Cc1nc(Nc2ncc(C(=O)Nc3c(C)cccc3Cl)s2)cc(N2CCN(CCO)CC2)n1 = 2.49
• CCn1nnc2c(N3CCOCC3)nc(-c3ccc(NC(=O)Nc4ccc(C(=O)N5CCN(C)CC5)cc4)cc3)nc21 [PKI-402] + Cc1nc(Nc2ncc(C(=O)Nc3c(C)cccc3Cl)s2)cc(N2CCN(CCO)CC2)n1 = 1.19
• CC(O)C(=O)O.CC(O)C(=O)O.CN1CCN(c2ccc3nc(-c4c(N)c5c(F)cccc5[nH]c4=O)[nH]c3c2)CC1 [Dovitinib Dilactic acid (TKI258 Dilactic acid)] + Cc1nc(Nc2ncc(C(=O)Nc3c(C)cccc3Cl)s2)cc(N2CCN(CCO)CC2)n1 = 1.8
• Nc1ccc(C(=O)Nc2cccc(-c3nc(N4CCOCC4)c4oc5ncccc5c4n3)c2)cn1 + Cc1nc(Nc2ncc(C(=O)Nc3c(C)cccc3Cl)s2)cc(N2CCN(CCO)CC2)n1 = 2.16
• COc1ncc(-c2ccc3nccc(-c4ccnnc4)c3c2)cc1NS(=O)(=O)c1ccc(F)cc1F + Cc1nc(Nc2ncc(C(=O)Nc3c(C)cccc3Cl)s2)cc(N2CCN(CCO)CC2)n1 = 1.1
• C#Cc1cccc(Nc2ncnc3cc(OCCOC)c(OCCOC)cc23)c1.Cl [Erlotinib HCl] + Cc1nc(Nc2ncc(C(=O)Nc3c(C)cccc3Cl)s2)cc(N2CCN(CCO)CC2)n1 = 2.54
• CC(C)(C)c1nc(-c2cccc(NS(=O)(=O)c3c(F)cccc3F)c2F)c(-c2ccnc(N)n2)s1 + Cc1nc(Nc2ncc(C(=O)Nc3c(C)cccc3Cl)s2)cc(N2CCN(CCO)CC2)n1 = 2.61
• Cc1ccc(NC(=O)c2ccc(CN3CCN(C)CC3)cc2)cc1Nc1nc(-c2cccnc2)cs1 [Masitinib (AB1010)] + Cc1nc(Nc2ncc(C(=O)Nc3c(C)cccc3Cl)s2)cc(N2CCN(CCO)CC2)n1 = 2.51
